Provenance of the data: ChEMBL document CHEMBL2040836

- assay_explanation: in vivo
- measurement_parameters: Sprague-Dawley, rat, po
readout_kind: bioavailability (%)
All answers are understood in %, so give the number only.

Recorded bioavailability, per entry:
>>> data_value("Cc1cccnc1CN1CCC2(CC1)NC(=O)N(c1ccc(-c3ccccc3)cc1)C2=O")
42
>>> data_value("Cc1cccnc1CN1CCC2(CC1)C(=O)N(c1ccc(-c3ccccc3)cc1)C(=O)N2c1nccc(O)n1")
66

## Task Identify bioavailability associated with the molecule COc1cc(N2C(=O)N(c3ccc(-c4ccc(C(=O)O)cc4C)cc3)C(=O)C23CCN(Cc2ncccc2C)CC3)ncn1
## Result 64

## Task Tell me its bioavailability given Cc1cccnc1CN1CCC2(CC1)C(=O)N(c1ccc(-c3ccccc3)cc1)C(=O)N2c1ccnc(O)n1 as the entry.
## Result 39

## Task Fill in reported bioavailability for this entry: Cc1cccnc1CN1CCC2(C(=O)N(c3ccc(-c4ccccc4)cc3)C(=O)N2c2cc(O)ncn2)C(C(=O)O)C1 (configuration not stated)
## Result 4.3

## Task Could you please provide reported bioavailability for Cc1cccnc1CN1CCC2(CC1)C(=O)N(c1ccc(-c3ccc(C(=O)O)cc3)cc1)C(=O)N2c1ccncn1 ? Thanks!
## Result 8

## Task Give a short answer stating reported bioavailability for Cc1cccnc1CN1CCC2(CC1)C(=O)N(c1ccc(-c3ccccc3)cc1)c1ncccc12 .
## Result 0

## Task Quick one: give measured bioavailability for Cc1cc(C(=O)O)ccc1-c1ccc(N2C(=O)N(c3ccncn3)C3(CCN(Cc4ncccc4C)CC3)C2=O)cc1
## Result 47

## Task Let me know recorded bioavailability for Cc1cccnc1CN1CCC2(CC1)C(=O)N(c1ccc(-c3ccccc3)cc1)C(=O)N2c1cc(O)ccn1 , thanks.
## Result 49

###

- assay_explanation: in vivo
- measurement_parameters: Sprague-Dawley, rat, po
The entries below come with measured bioavailability values attached.
Field format: number, assumed %, no unit text.

Sample records with bioavailability:
>>> data_value("Cc1cccnc1CN1CCC2(NC(=O)N(c3ccc(-c4ccccc4)cc3)C2=O)C(C(=O)O)C1 (stereo not drawn)")
14
>>> data_value("Cc1cccnc1CN1CCC2(CC1)C(=O)N(c1ccc(-c3ccccc3)cc1)C(=O)N2c1ncccn1")
18

Now for another entry.
## Task Please look at this molecule and report its bioavailability: Cc1cccnc1CN1CCC2(CC1)C(=O)N(c1ccc(-c3ccccc3)cc1)c1ccccc12
## Result 11
